Origin of the recorded values: ChEMBL document CHEMBL1240487

Reported IC50 values for the following compounds.
- systemUnderTest: Mitogen-activated protein kinase 3 (Homo sapiens)
- Sequence (P27361 whole entry): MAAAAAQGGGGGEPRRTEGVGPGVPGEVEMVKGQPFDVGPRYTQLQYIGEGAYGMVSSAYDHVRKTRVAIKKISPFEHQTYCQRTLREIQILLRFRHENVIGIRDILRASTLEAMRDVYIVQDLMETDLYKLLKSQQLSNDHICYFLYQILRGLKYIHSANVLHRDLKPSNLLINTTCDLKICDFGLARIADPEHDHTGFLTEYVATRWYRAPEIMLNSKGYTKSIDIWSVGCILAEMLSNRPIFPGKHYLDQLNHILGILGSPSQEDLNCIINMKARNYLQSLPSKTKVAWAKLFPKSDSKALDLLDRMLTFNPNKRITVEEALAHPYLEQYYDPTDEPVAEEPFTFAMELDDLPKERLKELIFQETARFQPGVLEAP
- methodNotes: Inhibition of Erk1 by HTRF assay

Consider the reported IC50 for these compounds:
{"smilesEntry": "CNc1nccc(-c2cccnc2Oc2ccc(NC(=O)c3ccccc3Nc3ccccc3)cc2)n1", "IC50": "> 1 µM"}
{"smilesEntry": "CNc1nccc(-c2cccnc2Oc2ccc(Nc3nnc(-c4ccc(F)cc4)c4ccccc34)cc2)n1", "IC50": "> 25 µM"}

# input Supply recorded IC50 for CNc1nccc(-c2cccnc2Oc2ccc(NC(=O)c3cccc(C(F)(F)F)c3)cc2C)n1 here.
# output > 8 µM

====

- methodNotes: Half life in Sprague-Dawley rat at 0.5 mg/kg, iv and 2 mg/kg, po
- Type: ADME, organism-based
- conditionInfo: in vivo
measuredParameter: half-life (h)
Just the number please, in h, no unit attached.

# input Supply recorded half-life for CNc1nccc(-c2cccnc2Oc2ccc(NC(=O)c3ccccc3Nc3ccccc3)cc2)n1 here.
# output 2.8

====

- methodNotes: Protein binding in mouse plasma at 10 uM by ultrafiltration
- Assay type: ADME, cell-free
- conditionInfo: read-out: PPB
measuredParameter: fraction unbound at 10 µM

# input Supply recorded fraction unbound at 10 µM for CNc1nccc(-c2cccnc2Oc2ccc(Nc3nnc(-c4ccc(F)cc4)c4ccccc34)cc2)n1 here.
# output < 0.001

====

pIC50: −log10 of the molar value.
Here's a batch of compounds along with measured pIC50 for Ribosomal protein S6 kinase beta-1 (Homo sapiens, UniProt P23443).

{"smilesEntry": "CNc1nccc(-c2cccnc2Oc2ccc(NC(=O)c3ccccc3Nc3ccccc3)cc2)n1", "systemUnderTest": "Ribosomal protein S6 kinase beta-1 (Homo sapiens, UniProt P23443)", "observedResult": "< 6.00"}

# next compound below
# input Supply recorded pIC50 for CNc1nccc(-c2cccnc2Oc2ccc(Nc3nnc(-c4ccc(F)cc4)c4ccccc34)cc2)n1 here.
# output < 4.60

====

- methodNotes: Aqueous equilibrium solubility of the compound in 0.01N HCL
- Type: physicochemical
measuredParameter: solubility thermodynamic (µg/mL)

{"smilesEntry": "CNc1nccc(-c2cccnc2Oc2ccc(NC(=O)c3ccccc3Nc3ccccc3)cc2)n1", "unitText": "µg/mL", "observedResult": 5}

[A] CNc1nccc(-c2cccnc2Oc2ccc(NC(=O)c3cc(F)ccc3Nc3ccccc3)cc2)n1
[B] CNc1nccc(-c2cccnc2Oc2ccc(Nc3nnc(-c4ccccc4)c4ccccc34)cc2)n1
[C] CNc1nccc(-c2cccnc2Oc2ccc(NC(=O)c3ccccc3Nc3ccc(F)cc3)cc2)n1
# input Ascending by solubility thermodynamic, please. Dear reader, please state the labels in the requested order.
# output A, C, B

====

- systemUnderTest: UniProt:Q06187
- Sequence (Q06187 whole entry): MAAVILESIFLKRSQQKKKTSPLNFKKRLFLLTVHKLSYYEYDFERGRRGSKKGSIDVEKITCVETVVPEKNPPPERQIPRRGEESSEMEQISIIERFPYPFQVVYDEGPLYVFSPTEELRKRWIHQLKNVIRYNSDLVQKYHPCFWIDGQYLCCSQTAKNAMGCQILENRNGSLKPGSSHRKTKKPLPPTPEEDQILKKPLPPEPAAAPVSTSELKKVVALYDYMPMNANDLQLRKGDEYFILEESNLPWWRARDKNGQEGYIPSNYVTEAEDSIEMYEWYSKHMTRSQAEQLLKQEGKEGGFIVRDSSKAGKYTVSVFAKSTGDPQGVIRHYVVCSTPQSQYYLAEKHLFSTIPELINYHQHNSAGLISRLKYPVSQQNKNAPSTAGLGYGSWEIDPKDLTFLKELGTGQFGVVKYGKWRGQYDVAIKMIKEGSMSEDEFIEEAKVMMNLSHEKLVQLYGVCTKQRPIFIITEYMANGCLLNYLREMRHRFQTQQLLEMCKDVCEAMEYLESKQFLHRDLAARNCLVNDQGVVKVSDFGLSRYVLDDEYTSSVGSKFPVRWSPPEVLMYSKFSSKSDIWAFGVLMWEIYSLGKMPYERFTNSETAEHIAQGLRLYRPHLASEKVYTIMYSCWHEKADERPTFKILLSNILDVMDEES
pIC50: −log10 of the molar value.
measuredParameter: pIC50

# input Supply pIC50 measured with UniProt:Q06187 for CNc1nccc(-c2cccnc2Oc2ccc(NC(=O)c3ccccc3Nc3ccccc3)cc2)n1 .
# output < 6.00

====

- systemUnderTest: Cyclin-dependent kinase 1 (Homo sapiens, UniProt P06493)
- Sequence (P06493 whole entry): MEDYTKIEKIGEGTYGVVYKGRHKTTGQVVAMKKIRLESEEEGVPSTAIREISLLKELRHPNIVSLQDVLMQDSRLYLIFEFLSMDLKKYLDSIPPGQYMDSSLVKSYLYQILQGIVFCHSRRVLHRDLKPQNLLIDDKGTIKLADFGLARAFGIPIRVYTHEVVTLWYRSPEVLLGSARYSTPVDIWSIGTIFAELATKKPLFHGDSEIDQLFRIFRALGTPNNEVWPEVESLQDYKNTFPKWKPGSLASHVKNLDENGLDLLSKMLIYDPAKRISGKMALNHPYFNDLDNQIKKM
- methodNotes: Inhibition of CDK1 by HTRF assay
measuredParameter: IC50

# input Supply recorded IC50 for CNc1nccc(-c2cccnc2Oc2ccc(NC(=O)c3ccccc3Nc3ccccc3)cc2)n1 here.
# output > 1 µM

====

- systemUnderTest: Vascular endothelial growth factor receptor 2 (Homo sapiens, UniProt P35968)
- Sequence (P35968 whole entry): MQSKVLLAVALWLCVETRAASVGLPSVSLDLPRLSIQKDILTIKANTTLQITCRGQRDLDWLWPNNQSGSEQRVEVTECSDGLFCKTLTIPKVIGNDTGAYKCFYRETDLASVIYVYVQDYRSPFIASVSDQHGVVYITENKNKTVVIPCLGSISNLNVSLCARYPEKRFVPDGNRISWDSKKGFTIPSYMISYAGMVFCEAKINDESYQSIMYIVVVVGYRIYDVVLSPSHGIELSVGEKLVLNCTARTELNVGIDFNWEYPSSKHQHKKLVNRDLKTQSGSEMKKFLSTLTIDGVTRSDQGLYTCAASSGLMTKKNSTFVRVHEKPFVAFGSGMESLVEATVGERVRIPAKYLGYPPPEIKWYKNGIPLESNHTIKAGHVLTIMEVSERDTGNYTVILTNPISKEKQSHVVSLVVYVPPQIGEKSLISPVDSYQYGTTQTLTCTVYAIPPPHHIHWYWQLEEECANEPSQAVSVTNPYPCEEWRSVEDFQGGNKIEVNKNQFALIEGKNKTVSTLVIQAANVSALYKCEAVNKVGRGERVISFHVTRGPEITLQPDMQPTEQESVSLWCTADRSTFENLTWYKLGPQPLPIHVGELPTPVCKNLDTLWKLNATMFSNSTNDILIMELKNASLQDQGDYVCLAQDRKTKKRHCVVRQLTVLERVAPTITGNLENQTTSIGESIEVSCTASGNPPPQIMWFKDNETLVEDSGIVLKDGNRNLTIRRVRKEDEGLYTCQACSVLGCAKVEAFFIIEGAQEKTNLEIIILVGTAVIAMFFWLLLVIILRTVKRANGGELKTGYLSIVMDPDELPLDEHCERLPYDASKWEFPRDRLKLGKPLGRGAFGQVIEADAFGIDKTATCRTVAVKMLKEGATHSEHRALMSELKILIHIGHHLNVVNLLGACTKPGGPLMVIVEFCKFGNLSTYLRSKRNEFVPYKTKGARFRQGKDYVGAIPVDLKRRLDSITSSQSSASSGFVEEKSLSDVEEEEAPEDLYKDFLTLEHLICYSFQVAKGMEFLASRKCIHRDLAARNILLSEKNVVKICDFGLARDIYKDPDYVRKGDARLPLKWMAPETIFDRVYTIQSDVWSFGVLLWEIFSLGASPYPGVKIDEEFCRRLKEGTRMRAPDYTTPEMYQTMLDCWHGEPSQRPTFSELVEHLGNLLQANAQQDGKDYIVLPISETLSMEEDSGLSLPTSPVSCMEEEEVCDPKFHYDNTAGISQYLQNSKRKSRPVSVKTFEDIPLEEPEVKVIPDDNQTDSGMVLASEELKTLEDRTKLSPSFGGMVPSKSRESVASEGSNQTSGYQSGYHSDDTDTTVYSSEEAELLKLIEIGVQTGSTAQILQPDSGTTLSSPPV
measuredParameter: IC50 (µM)
Just the number please, in µM, no unit attached.

# input Supply recorded IC50 for CNc1nccc(-c2cccnc2Oc2ccc(NC(=O)c3cccc(C(F)(F)F)c3)cc2C)n1 here.
# output 3.27
